Test system: Zika virus NS2B-NS3 protease (unlinked complex)
protocol: Primary screen GU Rhodamine qHTS for Zika virus inhibitors: Unlinked NS2B-NS3 protease assay (AID 1347159); also: nearly all actives have a fitted effect of over 60% in size
measurement-conditions: Recombinant ZIKV NS2B-NS3 protease, Rhodamine110 substrate fluorescence; series mostly up to 107 µM
Records with an inconclusive call do not appear. The source made the active and inactive calls. Calls follow the shape of the dose curve; as a rule, active = well fitted inhibition curve with a large enough effect; inconclusive = small, poorly fitted or top-dose-only effect; inactive = no such curve, though single readings can be large or run the other way.
Outcomes you can answer with include only these: yes = active, no = inactive

Some entries whose results are on file:
I would be grateful if you could indicate the recorded call for "Cc1ccc(-c2cc(C(F)(F)F)nn2-c2ccc(S(N)(=O)=O)cc2)cc1" .
no

Please give the result for "O=C1Cc2cc(CCN3CCN(c4nsc5ccccc45)CC3)c(Cl)cc2N1" too.
no

Please give the result for "Clc1ccc2c(c1)C(N1CCNCC1)=Nc1ccccc1O2" too.
no

New cases:
I would be grateful if you could indicate the recorded call for "CC1(C)O[C@H]2CC(=O)OC[C@]23[C@H]2CC[C@@]4(C)[C@H](c5ccoc5)OC(=O)[C@H]5O[C@]54[C@]2(C)C(=O)C[C@@H]13" .
no

Please give the result for "Cc1cc(C(C)(C)C)c(O)c(C)c1CC1=NCCN1" too.
no

Please give the result for "CC[C@@]1(O)C(=O)OCc2c1cc1n(c2=O)Cc2cc3c(CN(C)C)c(O)ccc3nc2-1" too.
yes
